BLOOD UREA NITROGEN overview
Species on record: Rattus norvegicus
protocol.details: DrugMatrix - Regimen: Daily Repeat
Assay type: toxicity, organism-based, Sprague-Dawley
Set-up: regimen Daily Repeat, gender Male, age 6-8 weeks
test.settings: in vivo, po, 100 mg/kg, 120 h, tissue Plasma, route oral GAVAGE, dose level Low, time 5 day, vehicle .5 % CMC
Provide only the numeric value, understood in mg/dL.

Some solved cases for reference:
compound="Nc1nc2c(c(=O)[nH]1)N(C=O)C(CNc1ccc(C(=O)N[C@@H](CCC(=O)O)C(=O)O)cc1)CN2 (some centres undefined) [LEUCOVORIN]" reading=15.33
compound=CC[C@]1(O)CC[C@H]2[C@@H]3CCC4=CCCC[C@@H]4[C@H]3CC[C@@]21C reading=10.67
compound="CC=Cc1ccc(O)c(OC)c1 [ISOEUGENOL]" reading=18

Now look at this entry.
Query :: Consider the compound C#C[C@]1(O)CC[C@H]2[C@@H]3CCC4=Cc5oncc5C[C@]4(C)[C@H]3CC[C@@]21C [DANAZOL] and give its recorded BLOOD UREA NITROGEN.
Result :: 15.67

----------
Species on record: Rattus norvegicus
protocol.details: DrugMatrix - Regimen: Daily Repeat
Format: toxicity, organism-based, Sprague-Dawley
Design: regimen Daily Repeat, gender Male, age 6-8 weeks
test.settings: in vivo, po, 0 mg/kg, 72 h, tissue Blood, route oral GAVAGE, dose level Control, time 3 day, […]
metric: MEAN CORPUSCULAR VOLUME (fL)
Provide only the numeric value, understood in fL.

Some solved cases for reference:
compound=OCCN1CCN(CCCN2c3ccccc3Sc3ccc(C(F)(F)F)cc32)CC1 scale_unit=fL reading=63.03
compound=C#C[C@]1(O)CC[C@H]2[C@@H]3CCc4cc(O)ccc4[C@H]3CC[C@@]21C scale_unit=fL reading=62.97
compound="CC(=O)Nc1nnc(S(N)(=O)=O)s1 [ACETAZOLAMIDE]" scale_unit=fL reading=63.3
compound=CCn1cc(C(=O)O)c(=O)c2cc(F)c(N3CCNCC3)nc21 scale_unit=fL reading=62.97
compound=NC[C@@H]1O[C@H](O[C@H]2[C@@H](O)[C@H](O[C@@H]3[C@@H](O)[C@H](N)C[C@H](N)[C@H]3O[C@H]3O[C@H](CN)[C@@H](O)[C@H](O)[C@H]3N)O[C@@H]2CO)[C@H](N)[C@@H](O)[C@@H]1O scale_unit=fL reading=60.18
compound=CC[C@H](C)C(=O)O[C@H]1C[C@@H](C)C=C2C=C[C@H](C)[C@H](CC[C@@H]3C[C@@H](O)CC(=O)O3)[C@H]21 scale_unit=fL reading=62.93

Now look at this entry.
Query :: Consider the compound `CC[C@H](C)C(=O)O[C@H]1C[C@H](O)C=C2C=C[C@H](C)[C@H](CC[C@@H](O)C[C@@H](O)CC(=O)O)[C@H]21` and give its recorded MEAN CORPUSCULAR VOLUME.
Result :: 63.58

----------
Species: Rattus norvegicus
protocol.details: DrugMatrix - Regimen: Daily Repeat
Type: toxicity, organism-based, Sprague-Dawley
Parameters: regimen Daily Repeat, gender Male, age 6-8 weeks
test.settings: in vivo, po, 0 mg/kg, 72 h, tissue Plasma, route oral GAVAGE, dose level Control, time 3 day, vehicle 100 % WATER
metric: CHLORIDE
Answer with the value and then the unit.

Some solved cases for reference:
compound="CCN(CC)CC#CCOC(=O)C(O)(c1ccccc1)C1CCCCC1 (stereo not drawn)" metric=CHLORIDE reading="99.83 MEQ/L"
compound=CCN[C@@H](C)Cc1cccc(C(F)(F)F)c1 metric=CHLORIDE reading="101.67 MEQ/L"

Query :: Consider the compound `OCCO` and give its recorded CHLORIDE.
Result :: 100.83 MEQ/L
